# TESTED ON: hERG (Kv11.1, KCNH2) (Homo sapiens)
# Sequence (Q12809 whole entry): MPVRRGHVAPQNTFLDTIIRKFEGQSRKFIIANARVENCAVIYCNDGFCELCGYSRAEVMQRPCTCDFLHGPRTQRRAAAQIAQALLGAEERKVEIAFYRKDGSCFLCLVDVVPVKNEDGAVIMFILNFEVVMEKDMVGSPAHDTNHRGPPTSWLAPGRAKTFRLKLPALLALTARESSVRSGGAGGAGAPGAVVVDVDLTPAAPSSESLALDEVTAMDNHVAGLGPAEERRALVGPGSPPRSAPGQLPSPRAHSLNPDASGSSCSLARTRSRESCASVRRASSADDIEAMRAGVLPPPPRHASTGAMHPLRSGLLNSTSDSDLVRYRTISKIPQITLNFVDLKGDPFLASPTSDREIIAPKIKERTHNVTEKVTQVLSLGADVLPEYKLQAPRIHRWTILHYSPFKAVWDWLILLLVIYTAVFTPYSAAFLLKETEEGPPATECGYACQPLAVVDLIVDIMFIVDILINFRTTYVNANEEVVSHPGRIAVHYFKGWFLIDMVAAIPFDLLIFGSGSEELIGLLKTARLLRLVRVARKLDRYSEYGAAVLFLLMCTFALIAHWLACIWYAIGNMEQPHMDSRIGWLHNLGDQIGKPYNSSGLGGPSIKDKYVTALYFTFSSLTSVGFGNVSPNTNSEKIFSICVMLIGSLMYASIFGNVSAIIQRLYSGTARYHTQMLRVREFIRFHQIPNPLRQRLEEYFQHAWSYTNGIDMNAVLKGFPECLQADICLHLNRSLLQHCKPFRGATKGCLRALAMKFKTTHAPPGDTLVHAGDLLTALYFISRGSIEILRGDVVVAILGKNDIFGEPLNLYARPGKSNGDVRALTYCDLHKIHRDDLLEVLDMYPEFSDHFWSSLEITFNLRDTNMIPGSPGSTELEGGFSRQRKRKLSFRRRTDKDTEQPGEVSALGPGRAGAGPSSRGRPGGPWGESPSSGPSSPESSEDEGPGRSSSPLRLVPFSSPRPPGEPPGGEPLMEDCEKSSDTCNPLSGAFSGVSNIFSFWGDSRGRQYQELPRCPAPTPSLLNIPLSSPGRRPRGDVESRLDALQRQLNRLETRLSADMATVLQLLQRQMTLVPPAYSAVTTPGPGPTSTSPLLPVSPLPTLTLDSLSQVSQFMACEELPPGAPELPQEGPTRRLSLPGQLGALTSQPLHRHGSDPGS
# MEASUREMENT DESCRIPTION: in vitro
# Description: MMV: Malaria Box compounds were tested for inhibition of the human ether a go-go related gene (hERG), Kv11.1 channel, using IonWorks 384-well patch clamp electrophysiology at 1.1uM (3 independent assay plates up to 12 cells per concentration).
For each record, write down the corresponding inhibition at 1.1 µM.
Give the quantity in %, number only.

For record CCOc1cc(Br)c(C(C)NC(=O)c2cccc(OC)c2)cc1OCC (stereo not drawn) the listed inhibition at 1.1 µM is -12

For record "O=C(CCl)NCCOc1ccc(Cl)cc1Cl" the listed inhibition at 1.1 µM is 1

For record COc1ccc(CN2CCCC(C(=O)c3ccc(C(F)(F)F)cc3)C2)c(O)c1 (stereo not drawn) the listed inhibition at 1.1 µM is 58

For record CCC(C)NCC(O)(c1ccc(Cl)cc1)c1ccc(Cl)cc1 (stereo not drawn) the listed inhibition at 1.1 µM is 24

For record "O=C(Nc1ccccc1O)c1ccc(-c2ccc(Cl)cc2Cl)o1" the listed inhibition at 1.1 µM is 1

For record "Cc1cc(C)c2nc(N3CCC(C(=O)NCCCN4CCC(N5CCCCC5)CC4)CC3)sc2c1" the listed inhibition at 1.1 µM is 18

For record "Cc1ccc(S(=O)(=O)c2c(COC(=O)c3cccc(C)c3)c(-c3ccccc3)nn2C)cc1" the listed inhibition at 1.1 µM is 4

For record OC(CNC1CCCC1)Cn1c2ccccc2c2ccccc21 (stereo not drawn) the listed inhibition at 1.1 µM is 8

For record "COc1cccc(-c2nn(C)c3sc(C(=O)NCCN4CCN(c5ccccc5F)CC4)cc23)c1" the listed inhibition at 1.1 µM is 21

For record "Nc1ccn([C@@H]2O[C@H](CO)[C@@H](O)[C@H]2O)c(=O)n1" the listed inhibition at 1.1 µM is 0

For record CCOc1cc(CNC(C)C(O)c2ccccc2)cc(Cl)c1OCC (stereo not drawn) the listed inhibition at 1.1 µM is 2

For record "O=C(NNc1cc(N2CCCC2)nc(N2CCCC2)n1)c1ccccc1" the listed inhibition at 1.1 µM is 4

For record "COc1ccc(-c2cc(=O)oc3c4c(ccc23)OCN(Cc2ccc(F)cc2)C4)cc1" the listed inhibition at 1.1 µM is 24
